# assay.comment: Terminal half life in po dosed human
# Assay type: ADME, organism-based
# condition.parameters: in vivo, read-out: beta t1/2 (converted)
reported.property: half-life (h)
The answer is to be given in h; state only the numeric part.

QUERY: Given the entry "CN1CCN(CCOc2cc(OC3CCOCC3)c3c(Nc4c(Cl)ccc5c4OCO5)ncnc3c2)CC1" , report its measured half-life.
RESULT: 40

====

# assay.comment: Bioavailability in male rat at 25 mg/kg, po and 2 mg/kg, iv
# Format: ADME, organism-based
# condition.parameters: in vivo
reported.property: bioavailability (%)
Numbers only here, please. The scale is %.

QUERY: Which bioavailability value belongs to CN1CCN(CCOc2cc(OC3CCOCC3)c3c(Nc4c(Cl)ccc5c4OCO5)ncnc3c2)CC1 [SARACATINIB] ?
RESULT: 79

====

# tgt: UniProt P07947
# Sequence (P07947 whole entry): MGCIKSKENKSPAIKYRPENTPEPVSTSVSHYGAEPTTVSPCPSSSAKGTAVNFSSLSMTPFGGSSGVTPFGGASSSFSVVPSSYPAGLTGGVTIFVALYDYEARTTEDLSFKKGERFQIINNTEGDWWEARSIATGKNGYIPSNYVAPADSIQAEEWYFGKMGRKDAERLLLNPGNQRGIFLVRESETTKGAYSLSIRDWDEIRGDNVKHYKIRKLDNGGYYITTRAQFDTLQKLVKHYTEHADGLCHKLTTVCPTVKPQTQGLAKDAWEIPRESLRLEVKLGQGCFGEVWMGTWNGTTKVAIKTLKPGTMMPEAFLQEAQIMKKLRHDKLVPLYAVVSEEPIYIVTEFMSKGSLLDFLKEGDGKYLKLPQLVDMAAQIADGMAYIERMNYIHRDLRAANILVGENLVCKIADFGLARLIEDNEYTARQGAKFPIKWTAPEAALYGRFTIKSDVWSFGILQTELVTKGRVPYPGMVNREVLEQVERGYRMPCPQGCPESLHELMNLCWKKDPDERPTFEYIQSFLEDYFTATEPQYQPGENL
# assay.comment: Inhibition of recombinant C-YES by ELISA
reported.property: pIC50
Convention used: pIC50 is expressed as -log10 of the molar concentration.

QUERY: Provide the documented pIC50 with UniProt P07947 as the system for "Clc1ccc2c(c1Nc1ncnc3cc(OCCCN4CCCC4)cc(OC4CCOCC4)c13)OCO2"
RESULT: 8.52

====

# assay.comment: Clearance in rat at 20 mg/kg, po and 2 mg/kg, iv
# Type: ADME, organism-based
# condition.parameters: in vivo
reported.property: clearance (mL/min/kg)
# value in mL/min/kg; strip the unit string

QUERY: Requested field: clearance. Item: "Clc1ccc2c(c1Nc1ncnc3cc(OCCCN4CCCC4)cc(OC4CCOCC4)c13)OCO2"
RESULT: 48.3

====

# assay.comment: Percent of unbound ligand in human plasma
# Type: ADME, organism-based
reported.property: fraction unbound
// no unit string in output, number only

QUERY: Bench note: what fraction unbound did "CN1CCN(CCOc2cc(OC3CCOCC3)c3c(Nc4c(Cl)ccc5c4OCO5)ncnc3c2)CC1" show?
RESULT: 0.09

====

# tgt: Tyrosine-protein kinase CSK (Homo sapiens, UniProt P41240)
# Sequence (P41240 whole entry): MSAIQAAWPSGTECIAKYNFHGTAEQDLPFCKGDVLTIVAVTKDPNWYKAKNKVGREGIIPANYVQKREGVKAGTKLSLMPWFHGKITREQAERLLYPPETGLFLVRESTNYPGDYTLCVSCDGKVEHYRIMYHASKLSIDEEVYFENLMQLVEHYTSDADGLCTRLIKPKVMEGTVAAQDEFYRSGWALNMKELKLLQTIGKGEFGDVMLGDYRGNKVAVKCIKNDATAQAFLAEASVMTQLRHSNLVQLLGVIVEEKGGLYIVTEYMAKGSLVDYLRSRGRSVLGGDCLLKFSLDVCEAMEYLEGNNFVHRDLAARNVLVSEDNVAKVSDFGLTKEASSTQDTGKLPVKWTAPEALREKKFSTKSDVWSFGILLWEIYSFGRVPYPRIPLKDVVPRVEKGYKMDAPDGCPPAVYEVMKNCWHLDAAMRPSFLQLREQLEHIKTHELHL
# assay.comment: Inhibition of recombinant CSK by ELISA
Measured pIC50 accompanies every entry in the list below.
Scale: negative log10 of molar concentration, which is what pIC50 denotes.

{"compound.structure": "CN1CCN(CCOc2cc(OC3CCOCC3)c3c(Nc4c(Cl)ccc5c4OCO5)ncnc3c2)CC1", "pIC50": 6.08}

Below: the item to evaluate.
QUERY: Give pIC50 (Tyrosine-protein kinase CSK (Homo sapiens, UniProt P41240)) of the following compound: "Clc1ccc2c(c1Nc1ncnc3cc(OCCCN4CCCC4)cc(OC4CCOCC4)c13)OCO2"
RESULT: 6.57

====

// values below are reported IC50
# Test system: A549
# assay.comment: Inhibition of A549 cell migration by microdroplet migration assay
# Assay type: functional, cell-based
# condition.parameters: Homo sapiens

{"compound.structure": "Clc1ccc2c(c1Nc1ncnc3cc(OCCN4CCCC4)cc(N4CCOCC4)c13)OCO2", "result": "1200 nM"}
{"compound.structure": "COc1cc(OC2CCN(C)CC2)c2c(Nc3c(Cl)ccc4c3OCO4)ncnc2c1", "result": "150 nM"}
{"compound.structure": "CN1CCC(COc2cc(OC3CCOCC3)c3c(Nc4c(Cl)ccc5c4OCO5)ncnc3c2)CC1", "result": "300 nM"}

QUERY: Give the measured IC50 of "Clc1ccc2c(c1Nc1ncnc3cc(OCCc4ccncc4)cc(OC4CCOCC4)c13)OCO2" .
RESULT: 70 nM

QUERY: Need IC50, item "COc1ccc(Cl)c(Nc2ncnc3cc(OCCCN4CCOCC4)cc(OC4CCOCC4)c23)c1"
RESULT: 80 nM

// provenance: ChEMBL document CHEMBL1137334
